Tested on: dogs
Test: animal or person
Format: in vivo
Details: dog; spontaneous recovery, 25-75% neuromuscular response
RI (recovery index) values, listed per item
Enter your answer as a number in min; do not include the unit.

Worked set:
INSERT INTO measurements (molecule, assay_readout, observed_measurement) VALUES
  ('CC(=O)Oc1ccc(C[N+]2(C)[C@@H]3CC[C@H]2C[C@@H](OC(=O)C2CCC2C(=O)O[C@H]2C[C@H]4CC[C@@H](C2)[N+]4(C)Cc2ccc(OC(C)=O)c(OC(C)=O)c2)C3)cc1OC(C)=O.[Br-].[Br-] (stereo partly shown)', 'RI (recovery index)', 0.65),
  ('CC(=O)Oc1ccc(C[N+]2(C)C3CCCC2CC(OC(=O)CCCCCCC(=O)OC2CC4CCCC(C2)[N+]4(C)Cc2ccc(OC(C)=O)c(OC(C)=O)c2)C3)cc1OC(C)=O.[Br-].[Br-] (stereo not shown)', 'RI (recovery index)', 0.45),
  ('COc1cc(C[N+]2(C)[C@@H]3CC[C@H]2C[C@@H](OC(=O)C2CCCC(C(=O)O[C@H]4C[C@H]5CC[C@@H](C4)[N+]5(C)Cc4ccc(OC(C)=O)c(OC)c4)C2)C3)ccc1OC(C)=O.[Br-].[Br-] (stereo partly shown)', 'RI (recovery index)', 0.5);

Now, please, on to the next molecule.
### Prompt Query (molecule): COc1cc(C[N+]2(C)[C@@H]3CC[C@H]2C[C@@H](OC(=O)C2CCC2C(=O)O[C@H]2C[C@H]4CC[C@@H](C2)[N+]4(C)Cc2ccc(OC(C)=O)c(OC)c2)C3)ccc1OC(C)=O.[Br-].[Br-] (stereo partly shown) ; field requested: RI (recovery index)
### Response 0.7
